- Assay summary: qHTS assay for MDR1-selective chemotherapeutics: Primary screen using the drug-selected MDR subline cells KB-V1; also: nearly all actives have a fitted effect of over 60% in size
- Details: KB-V1 MDR cells viability, CellTiter-Glo, 72 h; series mostly up to 46.1 µM
Hit rate of the full screen: of about 400,000 compounds, about 13,000 (3.2%) were called active. Inconclusive results (about 18%) are left out. Calls follow the shape of the dose curve; as a rule, active = well fitted cell-killing curve with a large enough effect; inconclusive = small, poorly fitted or top-dose-only effect, or effect the other way; inactive = flat fitted curve, though single readings scatter. For the sample, actives were picked, then their nearest neighbours and some compounds at random.
# output must be one of true (1) (active), false (0) (inactive)

## Input Test call, this compound: COc1c(C)cc(C(O)c2ncc(-c3cccc(C(F)(F)F)c3)[nH]2)cc1C (stereo not drawn)
## Output false (0)

## Input Recorded test call requested for Cc1cc(NC(=O)c2cc(-c3cccs3)on2)nn1Cc1ccc(Cl)cc1
## Output true (1)

## Input // param item: COC(=O)[C@H]1C[C@H](OC(=O)NCc2ccccc2)[C@@]2(O)CN(S(=O)(=O)c3ccc(C)cc3)CC2[C@H]1C(=O)OC (stereo partly drawn) ; yields the recorded call
## Output false (0)

----------
- Assay summary: qHTS assay for MDR1-selective chemotherapeutics: Primary screen using the drug-selected MDR subline cells KB-V1; also: nearly all actives have a fitted effect of over 60% in size
- Details: KB-V1 MDR cells viability, CellTiter-Glo, 72 h; series mostly up to 46.1 µM
In all, about 400,000 compounds went through this assay and about 13,000 (3.2%) were called active. Roughly 18% stayed inconclusive and do not appear here. Calls follow the shape of the dose curve; as a rule, active = well fitted cell-killing curve with a large enough effect; inconclusive = small, poorly fitted or top-dose-only effect, or effect the other way; inactive = flat fitted curve, though single readings scatter. The entries come from a sample that favours actives as a whole.
Your response should consist of one outcome taken from active, inactive

Some entries whose results are on file:
>>> group("COc1ccc(C(O)c2nc(-c3ccc(OC)nc3)cs2)cc1 (stereo unspecified)")
"inactive"
>>> group("CCc1nc2ccc(C(=O)N(C)CCN(C)C)cn2c1N(CC)CCOC")
"inactive"
>>> group("c1cc(-c2ccc3[nH]ccc3c2)n2ccnc2c1")
"inactive"
>>> group("CN(C)c1nc(-c2cccnc2)nc(-c2ccc(Cl)cc2)c1C#N")
"inactive"
>>> group("CN(C)c1ccnc(Nc2ccc(F)cc2)c1C#N")
"inactive"

API: the following record is the query input.
## Input // param item: CCC(C)(C)n1nnnc1CN1CCN(c2nc3ccc(C)cc3cc2C#N)CC1 ; yields the recorded call
## Output active

----------
- Assay summary: qHTS assay for MDR1-selective chemotherapeutics: Primary screen using the drug-selected MDR subline cells KB-V1; also: nearly all actives have a fitted effect of over 60% in size
- Details: KB-V1 MDR cells viability, CellTiter-Glo, 72 h; series mostly up to 46.1 µM
The whole screen tested about 400,000 compounds, of which about 13,000 (3.2%) were called active. Another 18% or so got no clear call; they are omitted. Calls follow the shape of the dose curve; as a rule, active = well fitted cell-killing curve with a large enough effect; inconclusive = small, poorly fitted or top-dose-only effect, or effect the other way; inactive = flat fitted curve, though single readings scatter. The list comes from a sample in which actives are over-represented; it also holds close analogues and randomly drawn compounds.
Could you please pick one outcome from this set? 1.0 for active, 0.0 for inactive

>>> group("O=S(=O)(Nc1ccc2nc(N3CCOCC3)sc2c1)c1ccccc1")
0.0

## Input Please share the test call associated with O=C(NC1C2CC3CC(C2)CC1C3)c1ccc(N2CCNCC2)c([N+](=O)[O-])c1 (centres undefined) .
## Output 0.0

## Input Give the logged outcome of this assay for the following compound: Cc1nn(-c2ccccc2)c(C)c1NC(=O)COc1ccc(Cl)cc1Cl
## Output 1.0

## Input Record request — test call for O=C(COC(=O)c1ccccc1Br)Nc1nnc(-c2ccccc2)o1
## Output 0.0

## Input Any idea what this test logged for C/C=C/c1ccc(OCC(=O)OCC(=O)Nc2c(C)nn(-c3ccccc3)c2C)c(OC)c1 ?
## Output 0.0

## Input Please indicate how the test categorized COc1cc(OC)c(C(=O)Nc2ccc(N(C)C)cc2)cc1OC .
## Output 0.0

## Input Can you look up the reported call for CCOc1ccc(N(CC)S(=O)(=O)N2CCCC(C(=O)Nc3ccc(C(C)=O)cc3)C2)cc1 (centres undefined) for me?
## Output 0.0

## Input Please let me know the test result on file for O=C(NCc1ccc(F)cc1)c1cc(C2CCCCN2C(=O)c2cccs2)on1 (centres undefined) .
## Output 0.0

## Input Returns: the outcome recorded for COc1ccc(S(=O)(=O)N2CCC(C(=O)N3CCOCC3)CC2)cc1OC in this assay.
## Output 0.0

## Input Recorded test call requested for CN(CCO)C(=O)c1nc[nH]c1C(=O)N(C)Cc1ccccc1
## Output 0.0

## Input Look up the recorded call for CCOC(=O)C1C(=O)C=C(c2ccc(OC)cc2)CC1c1ccco1 (centres undefined) in this test.
## Output 1.0
